# Target entity: MASP-2 CCP2-SP (Homo sapiens (Human), UniProt O00187)
# Sequence (O00187 445-686): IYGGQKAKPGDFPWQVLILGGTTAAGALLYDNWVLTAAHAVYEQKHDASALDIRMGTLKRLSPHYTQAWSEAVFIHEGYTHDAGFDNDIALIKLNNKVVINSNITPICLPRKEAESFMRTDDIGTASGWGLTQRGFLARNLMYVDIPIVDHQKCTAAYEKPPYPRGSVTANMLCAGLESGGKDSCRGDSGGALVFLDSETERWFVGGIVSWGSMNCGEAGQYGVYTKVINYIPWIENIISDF
# Sequence (O00187 364-432 partner): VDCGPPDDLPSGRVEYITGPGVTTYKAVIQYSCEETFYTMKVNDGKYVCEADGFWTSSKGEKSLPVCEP
# Measurement description: MASP-2 co-crystallization, X-ray crystallography and structure analysis (H-bonds, van der Waals contacts)
# Set-up: unit not given beside the values
# Condition label: Table A5-2 pharmacophore distance, S3/S4 region
Metric name: d(O2,H3)
No unit in the answer, only the number.

> print(dat)
                                   compound  obs.value
1  Cc1nc(N)ccc1CNC(=O)C(C)NC(=O)C1CC(c2cccc3ccccc23)CCN1.Cl.Cl (stereo not shown) [1297_6]       4.15
2  C[C@H](NC(=O)[C@H]1C[C@@H](c2ccccc2)CCN1)C(=O)NCc1cc(Cl)ccc1O.Cl [1078_13]       2.11
3  Cc1nc(N)ccc1CNC(=O)[C@H](C)NC(=O)[C@H]1C[C@H](Cc2ccccc2Br)CN1.O=C(O)C(F)(F)F.O=C(O)C(F)(F)F [1372_A]       2.30

Okay, now this compound:
Q: Entry under review: `N=C(N)c1ccc(CNC(=O)[C@@H]2CCN2C(=O)[C@H]2Cc3ccccc3CN2)cc1` . Reported d(O2,H3)?
A: 2.74
